- Test system: vCap Cell
- TEST DETAILS: vCap cell growth inhibition, CellTiter-Glo, 72 h
- Assay type: cell-based
- RECORDED CONDITIONS: Homo sapiens, VCaP, 72 h, vCap cells, 72 h culture
- Method: 22RV1 or vCap cells were cultured in RPMI-1640 medium (10% fetal bovine serum and 100 units (per mL) of penicillin/streptomycin dual antibody were added to RPMI-1640) in a 37° C., 5% CO2 cell incubator. […] The plate was let stand at room temperature for 10 min, and fluorescence signal values were read using a microplate reader. Data were analyzed using Prism 7.0 and graphs were generated. […]
pIC50: −log10 of the molar value.

- COMPOUND: "CC(=O)N1Cc2cc(C3CCC(=O)CC3)cc(N3CCCc4cc(-c5cnn(C)c5)c(C(F)F)cc43)c2C1 [Compound M001102]"
  STUDY SYSTEM: "vCap Cell"
  pIC50: "> 6.00"
- COMPOUND: "CC(=O)N1Cc2nc(C3CCOCC3)nc(N3CCCc4cc(-c5cnn(C)c5)c(C(F)F)cc43)c2C1 [Compound M001243]"
  STUDY SYSTEM: "vCap Cell"
  pIC50: "< 6.00"
- COMPOUND: "CNC(=O)N1CCc2cc(C3CCN(C(=O)C4CN(C)C4)CC3)cc(N3CCCc4cc(-c5cnn(C)c5)c(C(F)F)cc43)c2C1 [Compound M001084]"
  STUDY SYSTEM: "vCap Cell"
  pIC50: "< 6.00"
- COMPOUND: "CC(=O)N1CCC(c2cc3c(c(N4CCCc5cc(-c6cnn(C)c6)c(C(F)F)cc54)c2)CN(C(C)=O)C3)CC1 [Compound M001071]"
  STUDY SYSTEM: "vCap Cell"
  pIC50: "< 6.00"
- COMPOUND: "CNC(=O)N1CCc2cc(-c3ccc(=O)n(C)c3)cc(Nc3cc(C(F)F)c(-c4cnn(C)c4)cc3F)c2C1 [Compound M001239]"
  STUDY SYSTEM: "vCap Cell"
  pIC50: "> 6.00"
- COMPOUND: "CCN1CCC(c2cc3c(c(N4CCCc5cc(-c6cnn(C)c6)c(C(F)F)cc54)c2)CN(C(C)=O)C3)CC1=O (stereo not shown) [Compound M001189]"
  STUDY SYSTEM: "vCap Cell"
  pIC50: "> 6.00"
- COMPOUND: "CNC(=O)N1CCc2cc(C3CCN(C(=O)c4ccccc4)CC3)cc(N3CCCc4cc(-c5cnn(C)c5)c(C(F)F)cc43)c2C1 [Compound M001076]"
  STUDY SYSTEM: "vCap Cell"
  pIC50: "> 6.00"
- COMPOUND: "CC(=O)N1Cc2cc([C@H]3CC[C@H](O)CC3)cc(N3CCCc4cc(-c5cnn(C)c5)c(C(F)F)cc43)c2C1 [Compound M001194]"
  STUDY SYSTEM: "vCap Cell"
  pIC50: "> 6.00"
- COMPOUND: "CNC(=O)N1CCc2cc(CN3CCCC(C(=O)O)C3)cc(N3CCCc4cc(-c5cnn(C)c5)c(C(F)F)cc43)c2C1 (stereo not shown) [Compound M001015]"
  STUDY SYSTEM: "vCap Cell"
  pIC50: "< 6.00"
- COMPOUND: "CNC(=O)N1CCc2cc(C3CC4CCC(C3)N4)cc(N3CCCc4cc(-c5cnn(C)c5)c(C(F)F)cc43)c2C1 (stereo not shown) [Compound M001089]"
  STUDY SYSTEM: "vCap Cell"
  pIC50: "< 6.00"
- COMPOUND: "CC(=O)N1Cc2cc(C3CCC(N)CC3)cc(N3CCCc4cc(-c5cnn(C)c5)c(C(F)F)cc43)c2C1 (stereo not shown) [Compound M001301]"
  STUDY SYSTEM: "vCap Cell"
  pIC50: "< 6.00"
- COMPOUND: "CNC(=O)N1Cc2cc(C3CCC(OC)CC3)cc(N3CCCc4cc(-c5cnn(C)c5)c(C(F)F)cc43)c2C1 (stereo not shown) [Compound M001200]"
  STUDY SYSTEM: "vCap Cell"
  pIC50: "< 6.00"
- COMPOUND: "CC(=O)N1Cc2cc(C3CCNCC3)cc(N3CCCc4cc(-c5cnn(C)c5)c(C(F)F)cc43)c2C1 [Compound M001040]"
  STUDY SYSTEM: "vCap Cell"
  pIC50: "< 6.00"

* * *

Known IC50 of a selection of compounds
- System: vCap Cell
- TEST DETAILS: vCap cell growth inhibition, CellTiter-Glo, 72 h
- Assay type: cell-based
- RECORDED CONDITIONS: Homo sapiens, VCaP, 72 h, vCap cells, 72 h culture
ENDPOINT: IC50

- COMPOUND: "CN1CCN(c2cc3c(c(N4CCCc5cc(-c6cnn(C)c6)c(C(F)F)cc54)c2)CN(C)C(=O)C3)CC1"
  ENDPOINT: "IC50"
  MEAS VALUE: "> 1000 nM"
- COMPOUND: "CNC(=O)N1Cc2cc(C3CCN(C(=O)C4CC4)CC3)cc(N3CCCc4cc(-c5cnn(C)c5)c(C(F)F)cc43)c2C1"
  ENDPOINT: "IC50"
  MEAS VALUE: "> 1000 nM"
- COMPOUND: "CNC(=O)N1CCc2cc(C3CCN(C)C(=O)C3)cc(N3CCCc4cc(-c5cnn(C)c5)c(C(F)F)cc43)c2C1 (stereo not drawn)"
  ENDPOINT: "IC50"
  MEAS VALUE: "< 1000 nM"

* * *

Reported IC50 is given for each of the following molecules.
- STUDY SYSTEM: CBP bromodomain (Homo sapiens, UniProt Q92793)
- Sequence (Q92793 1085-1192 limits assumed): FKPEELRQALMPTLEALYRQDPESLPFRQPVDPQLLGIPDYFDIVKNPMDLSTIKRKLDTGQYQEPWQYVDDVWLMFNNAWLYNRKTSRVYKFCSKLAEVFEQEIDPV
- TEST DETAILS: CBP AlphaLISA assay kit (CBP bromodomain binding to acetylated histone substrate)
- RECORDED CONDITIONS: read-out: CBP ALPHA IC50
ENDPOINT: IC50

- MOLECULE: "CC(=O)N1Cc2nc(C3CCOCC3)nc(N3CCCc4cc(-c5cnn(C)c5)c(C(F)F)cc43)c2C1 [Compound M001243]"
  STUDY SYSTEM: "CBP bromodomain (Homo sapiens, UniProt Q92793)"
  MEAS VALUE: "> 10 nM"
- MOLECULE: "CC(=O)N1Cc2cc(C3CCC(=O)NC3)cc(N3CCCc4cc(-c5cnn(C)c5)c(C(F)F)cc43)c2C1 (stereo not shown) [Compound M001174]"
  STUDY SYSTEM: "CBP bromodomain (Homo sapiens, UniProt Q92793)"
  MEAS VALUE: "< 10 nM"
- MOLECULE: "CC(=O)N1Cc2cc(C3CCOCC3)cc(N3CCCc4cc(-c5cnn(C)c5)c(C(F)F)cc43)c2C1 [Compound M001067]"
  STUDY SYSTEM: "CBP bromodomain (Homo sapiens, UniProt Q92793)"
  MEAS VALUE: "< 10 nM"
- MOLECULE: "CNC(=O)N1Cc2nc(Cl)nc(N3CCCc4cc(-c5cnn(C)c5)c(C(F)F)cc43)c2C1 [Compound M001242]"
  STUDY SYSTEM: "CBP bromodomain (Homo sapiens, UniProt Q92793)"
  MEAS VALUE: "> 10 nM"

* * *

- Test system: vCap Cell
- TEST DETAILS: vCap cell growth inhibition, CellTiter-Glo, 72 h
- Type: cell-based
- RECORDED CONDITIONS: Homo sapiens, VCaP, 72 h, vCap cells, 72 h culture
pIC50: −log10 of the molar value.

- COMPOUND: "CNC(=O)N1CCc2cc(C3CCN(CC(F)(F)F)CC3)cc(N3CCCc4cc(-c5cnn(C)c5)c(C(F)F)cc43)c2C1 [Compound M001060]"
  pIC50: "< 6.00"
- COMPOUND: "CNC(=O)N1Cc2cc(-c3ccn(C)c(=O)c3)cc(N3CCCc4cc(-c5cnn(C)c5)c(C(F)F)cc43)c2C1 [Compound M001122]"
  pIC50: "< 6.00"
- COMPOUND: "CC(=O)N1Cc2cc(C3CCC(=O)N(C)C3)cc(N3CCCc4cc(-c5cnn(C)c5)c(C(F)F)cc43)c2C1 (stereo not shown) [Compound M001173]"
  pIC50: "> 6.00"
- COMPOUND: "CC(=O)N1CCc2cc(C3CCNC(=O)C3)cc(N3CCCc4cc(-c5cnn(C)c5)c(C(F)F)cc43)c2C1 (stereo not shown) [Compound M001142]"
  pIC50: "< 6.00"
- COMPOUND: "CC(=O)N1Cc2cc([C@H]3CC[C@@H](N)CC3)cc(N3CCCc4cc(-c5cnn(C)c5)c(C(F)F)cc43)c2C1 [Compound M001321]"
  pIC50: "< 6.00"
- COMPOUND: "CC(=O)N1CCc2cc([C@H]3CC[C@@H](O)CC3)cc(N3CCCc4cc(-c5cnn(C)c5)c(C(F)F)cc43)c2C1 [Compound M001178]"
  pIC50: "< 6.00"
- COMPOUND: "CNC(=O)N1Cc2cc(C3=CCN(C(=O)OCc4ccccc4)CC3)cc(N3CCCc4cc(-c5cnn(C)c5)c(C(F)F)cc43)c2C1 [Compound M001096]"
  pIC50: "< 6.00"
- COMPOUND: "CNC(=O)N1CCc2cc(C3CCC(=O)N(CCOC)C3)cc(N3CCCc4cc(-c5cnn(C)c5)c(C(F)F)cc43)c2C1 (stereo not shown) [Compound M001222]"
  pIC50: "> 6.00"
- COMPOUND: "CNC(=O)N1Cc2cc(C3CCN(C(=O)c4ccccc4)CC3)cc(N3CCCc4cc(-c5cnn(C)c5)c(C(F)F)cc43)c2C1 [Compound M001163]"
  pIC50: "< 6.00"
- COMPOUND: "CCNC(=O)N1CCc2cc(Cl)cc(N3CCCc4cc(-c5cnn(C)c5)c(C(F)F)cc43)c2C1 [Compound M001229]"
  pIC50: "< 6.00"
- COMPOUND: "CC(=O)N1Cc2cc(C3CCNC(=O)C3)cc(N3CCCc4cc(-c5cnn(C)c5)c(C(F)F)cc43)c2C1 (stereo not shown) [Compound M001126]"
  pIC50: "> 6.00"
- COMPOUND: "CC(=O)N1Cc2cc(C3CCCN(C)C3)cc(N3CCCc4cc(-c5cnn(C)c5)c(C(F)F)cc43)c2C1 (stereo not shown) [Compound M001049]"
  pIC50: "< 6.00"
- COMPOUND: "CC(=O)N1Cc2cc(C3CCN(C(=O)C4CNC4)CC3)cc(N3CCCc4cc(-c5cnn(C)c5)c(C(F)F)cc43)c2C1 [Compound M001079]"
  pIC50: "< 6.00"
- COMPOUND: "COCCN1CCC(c2cc3c(c(N4CCCc5cc(-c6cnn(C)c6)c(C(F)F)cc54)c2)CN(C(C)=O)C3)CC1=O (stereo not shown) [Compound M001191]"
  pIC50: "> 6.00"
- COMPOUND: "CC(=O)N1Cc2cc(C3CCN(CC#N)CC3)cc(N3CCCc4cc(-c5cnn(C)c5)c(C(F)F)cc43)c2C1 [Compound M001074]"
  pIC50: "> 6.00"
- COMPOUND: "CC(=O)N1Cc2cc(C3CCN(C(=O)c4cn(C)cn4)CC3)cc(N3CCCc4cc(-c5cnn(C)c5)c(C(F)F)cc43)c2C1 [Compound M001176]"
  pIC50: "> 6.00"
- COMPOUND: "CNC(=O)N1CCc2cc(C3CCNC3)cc(N3CCCc4cc(-c5cnn(C)c5)c(C(F)F)cc43)c2C1 (stereo not shown) [Compound M001050]"
  pIC50: "< 6.00"
- COMPOUND: "CC(=O)N1Cc2cc(C3CCC(O)CC3)cc(N3CCCc4cc(-c5cnn(C)c5)c(C(F)F)cc43)c2C1 (stereo not shown) [Compound M001064]"
  pIC50: "> 6.00"
- COMPOUND: "CC(=O)N1Cc2cc(C3CCCNC3)cc(N3CCCc4cc(-c5cnn(C)c5)c(C(F)F)cc43)c2C1 (stereo not shown) [Compound M001048]"
  pIC50: "< 6.00"
- COMPOUND: "Cn1cc(-c2cc3c(cc2C(F)F)N(c2cccc4c2CN(C(=O)C2CC2)CCC4)CCC3)cn1 [Compound M001214]"
  pIC50: "< 6.00"
- COMPOUND: "CN1CCC(c2cc3c(c(N4CCCc5cc(-c6cnn(C)c6)c(C(F)F)cc54)c2)CN(C)C(=O)C3)CC1 [Compound M001028]"
  pIC50: "< 6.00"
- COMPOUND: "CNC(=O)N1CCc2cc(N3CCN(C)CC3)cc(N3CCCc4cc(-c5cnn(C)c5)c(C(F)F)cc43)c2C1 [Compound M001045]"
  pIC50: "< 6.00"
